# measurement-target: Polyamine deacetylase HDAC10 (Homo sapiens, UniProt Q969S8)
# Sequence (Q969S8 whole entry): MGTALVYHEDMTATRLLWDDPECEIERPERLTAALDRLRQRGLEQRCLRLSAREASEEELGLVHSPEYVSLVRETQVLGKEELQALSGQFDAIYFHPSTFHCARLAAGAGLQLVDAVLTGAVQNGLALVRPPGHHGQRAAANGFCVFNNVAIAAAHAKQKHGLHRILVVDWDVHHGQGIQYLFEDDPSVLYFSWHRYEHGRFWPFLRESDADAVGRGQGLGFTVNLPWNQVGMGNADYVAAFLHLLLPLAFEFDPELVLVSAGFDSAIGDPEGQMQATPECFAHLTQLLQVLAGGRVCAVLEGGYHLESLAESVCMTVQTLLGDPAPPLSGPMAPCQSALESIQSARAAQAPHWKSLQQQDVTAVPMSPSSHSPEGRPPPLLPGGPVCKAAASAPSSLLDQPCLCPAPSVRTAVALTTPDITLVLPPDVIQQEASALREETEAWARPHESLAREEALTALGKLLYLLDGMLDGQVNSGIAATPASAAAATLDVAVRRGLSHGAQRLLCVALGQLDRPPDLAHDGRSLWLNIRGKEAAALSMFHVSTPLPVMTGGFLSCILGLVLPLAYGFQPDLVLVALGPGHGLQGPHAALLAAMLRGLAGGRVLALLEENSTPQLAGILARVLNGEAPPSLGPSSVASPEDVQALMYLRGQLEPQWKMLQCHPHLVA
# test-protocol: Inhibition of human recombinant HDAC10 using Ac-Arg-His-Lys(Ac)-Lys(Ac)-AMC substrate incubated for 15 to 30 mins
observable: Ki (nM)

Some compounds with recorded Ki:
[
  {
    "item-smiles": "CC(C)[C@H]1NC(=O)C[C@@H](/C=C/CCCC(=O)O)NC(=O)[C@@H](Cc2c[nH]c3ccccc23)NC(=O)[C@@H](C)NC1=O",
    "quantitative-readout": 600
  },
  {
    "item-smiles": "CC(C)[C@H]1NC(=O)C[C@@H](CCCCCC(=O)O)NC(=O)[C@@H](Cc2c[nH]c3ccccc23)NC(=O)[C@@H](C)NC1=O",
    "quantitative-readout": 170
  },
  {
    "item-smiles": "CC(C)[C@H]1NC(=O)C[C@@H](C/C=C\\CCC(=O)O)NC(=O)[C@@H](Cc2ccc(O)cc2)NC(=O)[C@@H](C)NC1=O",
    "quantitative-readout": 300
  },
  {
    "item-smiles": "CC(C)[C@H]1NC(=O)C[C@@H](/C=C/CCCC(=O)O)NC(=O)[C@@H](Cc2ccc(O)cc2)NC(=O)[C@@H](C)NC1=O",
    "quantitative-readout": 700
  },
  {
    "item-smiles": "CC(C)[C@H]1NC(=O)C[C@@H](C/C=C\\CCC(=O)O)NC(=O)[C@@H](Cc2c[nH]c3ccccc23)NC(=O)[C@@H](C)NC1=O",
    "quantitative-readout": 230
  }
]

a = CC(C)[C@H]1NC(=O)C[C@@H](CCCCCC(=O)O)NC(=O)[C@@H](Cc2ccc(O)cc2)NC(=O)[C@@H](C)NC1=O
b = CC(C)[C@H]1NC(=O)C[C@@H](C/C=C\CCC(=O)O)NC(=O)[C@@H](Cc2ccccc2)NC(=O)[C@@H](C)NC1=O
input: Consider a and b . Which of these has its Ki at a higher number? Mark your selection by writing its label.
output: b

I = CC(C)[C@H]1NC(=O)C[C@@H](CCCCCC(=O)O)NC(=O)[C@@H](Cc2ccccc2)NC(=O)[C@@H](C)NC1=O
II = CC(C)[C@H]1NC(=O)C[C@@H](/C=C/CCCC(=O)O)NC(=O)[C@@H](Cc2ccccc2)NC(=O)[C@@H](C)NC1=O
input: Consider I and II . Which of these has its Ki at a higher number? Mark your selection by writing its label.
output: II

Measured values drawn from ChEMBL document CHEMBL3351463 for this set.
